EXPERIMENTAL PROTOCOL: folding stability dG unfold from chymotrypsin proteolysis; higher = more stable
MEASUREMENT NAME: folding stability dG unfold (kcal/mol)

SAGGSSRTISIPVSPSLSPEEVAELIKKEVKKMGEDKEVKVLSVDPSGRIDVLVGDEPITVDASLPSAGGSA [r2_102_JUSTAS]: 0.623
SAGGSAGGSAGGEKIVLKVKPGDTVEVNGKTIKVPPGALITFDKKTKKLTIEPLSPEDLSAGGSAGGSAGGS [r10_353_TrROS_Hall]: 1.14
SAGGEEELRKAAEIAAAPPLEIEPVLETFTVETEEGPRVVLVISPVVRFPGDGVLIPNPVLVIPAEELSAGG [r19_11_TrMRF]: 0.301
KAYKVVFPLPKEGRTVVVYVPEEHGKPLTEEEIAALLREAYPDKEPADLPAEELAKILAAKEGVVRVEVEGS [r1_463_TrMRF]: 0.995
SAGGSAGGSPIKIEFPPGIKEIEPIENDPNKTIMFRFPDYLVRIRINPKNGKIDIEIVPPGDMSAGGSAGGS [r12_858_TrROS]: 1.9
SAGGSAPDNKPKPVVREVEFWIMIPFKSAEQAKEIVEELMKFFGGLKVEILEVHPDGYAMIKITIYSAGGSA [r15_387_TrROS]: 5.38
SAGGMKLVVTKVGEDDNTEYYLITDPGSAEAIREAIKKLVPKDLPYKVTVLSYDPATGTYTVLVEVKRSAGG [r13_491_JUSTAS]: 3.67

###

EXPERIMENTAL PROTOCOL: folding stability dG unfold (combined trypsin and chymotrypsin); higher = more stable
MEASUREMENT NAME: folding stability dG unfold

SAGGSAGGSAGKWIMFDSPEDIEEKLKENGYRIKNIEPQKMGGGPHVYVPIEIKPPPEDKSAGGSAGGSAGG [r11_141_TrROS]: 0.155 kcal/mol
SAGGSAGGSAGPRRFMFQIPADEVKLEFPGGAKVTDVEEDPDGYRRVMIEIPPGADPELKSAGGSAGGSAGG [r17_48_TrROS]: -0.129 kcal/mol
SAGMKIKVTIERGGDRAERILPPEEAKALLDKYPEDGEIPLDLEGEEVTVKIEKTPPALPTEEAIKELKSAG [r5_669_JUSTAS]: < -1 kcal/mol
SAGGKVVTVEVELENGVRVTVEFVEEDGYLALKVTVEVRLPAPPVTTADGREKEVTRRLELVILLPKESAGG [r13_780_TrROS_Hall]: 3.05 kcal/mol
SAGGSPYRIKFEFPNGPKFEFPVKITEIQPPNGNLYANITAQDDGKPHELMFPAPNIRPVEIEPPPSAGGSA [r2_319_TrROS]: -0.414 kcal/mol
SAGGSAGGSAGIVIKAKSPDEAVEALKKLFEKTGKADINIKPVKVLPDGNVLVEAGIDNKSAGGSAGGSAGG [r17_430_TrMRF]: -0.689 kcal/mol
SAGGSAGGSAGGKELEIVLYDKETNVLVTAKVRMENGKLTITEVKVEKVKPPKLPPGVKPSAGGSAGGSAGG [r7_276_TrROS_Hall]: 2.14 kcal/mol
SSTSMSTEPNRTVTTTTEKGGRSTVTTTTTTTFTASGETTTTTPVTTTTPPPPLGVYKDPAGVTRTRPLLSA [r9_456_JUSTAS]: -0.012 kcal/mol
SAGSMLLIKITITFKDPNGNLLKTIPIEKEADPNDPEAIEKAKEEAEKLAEELLPEDELAEVKAEVLLLSAG [r5_793_JUSTAS]: 2.24 kcal/mol
SAGGSAGGSAGGSMLLTSQLLREFPNGEVRLETEVVELELPDEPLPLPKPKPRRDPEGRLVSAGGSAGGSAG [r3_252_JUSTAS]: < -1 kcal/mol
SAGGSVEKKLLEYDPATGNRLVEVTAKAKPEVVEELIAKGYDPSTISPLGDGTVRALLTIPPDEKLDSAGGS [r16_755_JUSTAS]: -0.248 kcal/mol
SAGKNEVLKVDIEYDPETGIIRLKTTYPNGLKEEKLIFKIPGTGKWYTAWNSEYEEGKEYQDFGILPESAGG [r19_394_TrMRF]: 2.02 kcal/mol
SAGGSAGGSAGMRLLTEEIVVEQFFYETGETRLTVLTKEILVVPPRPVPVPLPEGGLRLLSAGGSAGGSAGG [r11_307_JUSTAS]: 0.184 kcal/mol
SAGGMTITVRVKAENPEEAIKKVEETVRSLGYRVVELKEVEVRYDEATGEVFVEATVEVEPLPEEEGSAGGS [r16_155_TrMRF]: 4.8 kcal/mol

Recorded values, source the supplement of paper PMC12764529.
